- test_details: in vivo
- condition_parameters: female, NMRI nude (nu/nu), mouse, total radioactivity, Uptake (%ID/g) spleen
recorded_endpoint: tissue uptake at 10 min
For clarity, give the value followed by its unit.

Q. Indicate the recorded tissue uptake at 10 min value for this compound: CC[C@H](C)[C@H](NC(=O)[C@@H](NC(=O)[C@@H]1CCCN1C(=O)[C@H](CCCNC(=N)N)NC(=O)[C@H](CCCNC(N)=NC(=O)NCCCCNC(=O)CN1CCN(CC(=O)O)CCN(CC(=O)O)CCN(CC(=O)O)CC1)NC)C(C)(C)c1ccc(O)cc1)C(=O)N[C@@H](CC(C)C)C(=O)O [[^68Ga]56, metal not drawn]
A. 2.5 %ID/g
